Read-out: Collagen III, COL3A1 (gene 1281)
PROTOCOL DESCRIPTION: BSK_hDFCGF_CollagenIII: BioMAP Diversity Plus: hDFCGF Assay for Collagen III Biomarker Activity (AID 2283056)
APPLIED CONDITIONS: primary human foreskin fibroblasts; actives raise or lower the signal
Activity calls are given as the source filed them. How the source made its calls: active means hit-call score of the fitted dose curve at least 0.9, where 1 is the maximum; inactive means score below 0.9.
Respond using exactly one of the listed classes: class 1 (active), class 0 (inactive)

**Query** What classification did COC(=O)CSc1cc(N=c2sc(=O)n3n2CCCC3)c(F)cc1Cl end up with in this test?
**Result** class 0

----------
Read-out: 3-Hydroxy-3-Methylglutaryl-CoA Synthase 2 (HMGCS2), HMGCS2 (gene 3158)
PROTOCOL DESCRIPTION: LTEA_HepaRG_HMGCS2: Life Technologies and Expression Analysis (LTEA) Assay for 3-Hydroxy-3-Methylglutaryl-CoA Synthase 2 (HMGCS2) using HepaRG (AID 2283504)
APPLIED CONDITIONS: mRNA level, 48 h; actives raise or lower the signal
Calls of active or inactive are those of the source. The calls were made as follows: active = hit-call score of the fitted dose curve at least 0.9, where 1 is the maximum; inactive = score below 0.9.
Pick one and only one: yes (1) = active, no (0) = inactive

Please review the entries below; each comes with its answer.
MOLECULE: CCCCOC(=O)[C@@H](C)Oc1ccc(Oc2ccc(C(F)(F)F)cn2)cc1
ASSIGNED CLASS: no (0)
--
MOLECULE: S=C([S-])NCCNC(=S)[S-].[Mn+2]
ASSIGNED CLASS: yes (1)
--
MOLECULE: CCCOC(=O)c1ccc(C(=O)OCCC)nc1
ASSIGNED CLASS: no (0)
--
MOLECULE: O=C(O)c1ccccc1
ASSIGNED CLASS: no (0)

**Query** Which result was noted for this molecule in the test: CCOC(=O)COc1cc(-n2ncc(C(F)(F)F)c(C)c2=O)c(F)cc1Cl
**Result** no (0)

**Query** Given COC(=O)c1ccccc1C(=O)O , state the outcome it received in this test.
**Result** no (0)

----------
Read-out: Cyclin Dependent Kinase Inhibitor 1A (CDKN1A), CDKN1A (gene 1026)
PROTOCOL DESCRIPTION: LTEA_HepaRG_CDKN1A: Life Technologies and Expression Analysis (LTEA) Assay for Cyclin Dependent Kinase Inhibitor 1A (CDKN1A) using HepaRG (AID 2283450)
APPLIED CONDITIONS: mRNA level, 48 h; actives raise or lower the signal
Activity calls are given as the source filed them. The calls were made as follows: active = hit-call score of the fitted dose curve at least 0.9, where 1 is the maximum; inactive = score below 0.9.
METRIC: outcome

MOL SMILES: Oc1ccc(C(c2ccc(O)cc2)C(Cl)(Cl)Cl)cc1
outcome: inactive
--
MOL SMILES: CCCCOCCOCCOCc1cc2c(cc1CCC)OCO2
outcome: inactive
--
MOL SMILES: CCNc1nc(N)nc(Cl)n1
outcome: inactive
--
MOL SMILES: CCSC(=O)N(CC(C)C)CC(C)C
outcome: inactive
--
MOL SMILES: N#CSCSc1nc2ccccc2s1
outcome: inactive

Batch: outcome for all items listed.
1. O=C(c1ccc(O)cc1O)c1ccc(O)cc1O
2. O=C(O)c1ccccc1
3. COC(=O)c1ccccc1C(=O)O

**Result**
["inactive", "inactive", "inactive"]

----------
Read-out: DNA damage-inducible transcript 3 (DDIT3), DDIT3 (gene 1649)
PROTOCOL DESCRIPTION: LTEA_HepaRG_DDIT3: Life Technologies and Expression Analysis (LTEA) Assay for DNA damage-inducible transcript 3 (DDIT3) using HepaRG (AID 2283488)
APPLIED CONDITIONS: mRNA level, 48 h; actives raise or lower the signal
The source made the active and inactive calls. How the source made its calls: active means hit-call score of the fitted dose curve at least 0.9, where 1 is the maximum; inactive means score below 0.9.
Give one outcome, nothing more. List: active, inactive

COMPOUND: CCNc1nc(N)nc(Cl)n1
ASSIGNED CLASS: inactive

COMPOUND: CCCCOC(=O)[C@@H](C)Oc1ccc(Oc2ccc(C(F)(F)F)cn2)cc1
ASSIGNED CLASS: inactive

COMPOUND: CC(=O)S[C@@H]1CC2=CC(=O)CC[C@]2(C)[C@H]2CC[C@@]3(C)[C@@H](CC[C@@]34CCC(=O)O4)[C@H]12
ASSIGNED CLASS: inactive

COMPOUND: CC1(C)C(C=C(Cl)Cl)C1C(=O)OCc1cccc(Oc2ccccc2)c1 (stereo not given)
ASSIGNED CLASS: inactive

COMPOUND: CCN(CC)C(=O)c1cccc(C)c1
ASSIGNED CLASS: inactive

**Query** # fetch the recorded call for CC(C)(C)[C@@H](O)[C@@H](Cc1ccc(Cl)cc1)n1cncn1 here
**Result** inactive

**Query** Which outcome was entered for the compound CCOC(=O)NCCOc1ccc(Oc2ccccc2)cc1 in this test?
**Result** active

**Query** For CC(C)CCCCCCc1ccc(O)cc1 , which call appears in the assay record?
**Result** inactive

**Query** Recorded call for CCC(C)OC(=O)N1CCCCC1CCO (stereo not given) ?
**Result** inactive

**Query** GET /call?item= c1ccc(Nc2ccccc2)cc1 returns the recorded outcome of this test.
**Result** inactive

**Query** Name the outcome recorded for CCN(Cc1c(F)cccc1Cl)c1c([N+](=O)[O-])cc(C(F)(F)F)cc1[N+](=O)[O-] in the assay.
**Result** inactive

**Query** Please indicate how the test categorized N#CSCSc1nc2ccccc2s1 .
**Result** inactive

**Query** Tell me the assay call for CCOC(=O)C(C)Oc1ccc(Oc2cnc3cc(Cl)ccc3n2)cc1 (stereo not given) please.
**Result** inactive

**Query** For this compound, state the assay outcome: CSC(=O)c1cccc2nnsc12
**Result** inactive

**Query** Entry CCOC(=O)C(C)Oc1ccc(Oc2nc3ccc(Cl)cc3o2)cc1 (stereo not given) : call = ?
**Result** inactive

**Query** Hi, sorry to bother you, what did the test record for COCCO ?
**Result** inactive
